# score (100=total damage to plant, 0=no damage to plant) per record follows
system: LOLPE; experiment: Biological efficacy, post-emergence glasshouse test (Table 2); format: in vivo; conditions: 1000 g/ha, after 12 days
Endpoint Name: score (100=total damage to plant, 0=no damage to plant)

# Molecule, Value Observed
measured = [
    ("C#Cc1c(Cl)cccc1C(F)(F)C(=O)O [Compound 1-291]", 0),
    ("COc1ccc(Cl)cc1C(F)(F)C(=O)O [Compound 1-305]", 0),
    ("CCOC(=O)C(F)(F)c1cccc2ccccc12 [Compound 3-397, Ethyl 2,2-difluoro-2-(1-naphthyl)acetate]", 0),
    ("O=C(O)C(F)(F)c1ccc(OC(F)F)cc1F [Compound 1-32]", 0),
    ("COc1ccc(C(F)(F)C(=O)O)cc1 [Compound 1-2]", 0),
    ("O=C(O)C(F)(F)c1ccc(OC(F)(F)F)c(Br)c1 [Compound 1-20]", 0),
    ("N.N#Cc1cccc(C(F)(F)C(=O)O)c1Cl [Compound 7-231]", 0),
    ("CC(C)(C)c1ccc(C(F)(F)C(=O)O)cc1 [Compound 1-1]", 0),
    ("COc1ccccc1C(F)(F)C(=O)O [Compound 1-9]", 0),
    ("N#Cc1ccccc1C(F)(F)C(=O)[O-].[Li+] [Compound 5-255]", 0),
]
